For each record, write down the corresponding Activity.
Target: Serine/threonine-protein kinase ULK1 (Homo sapiens) (UniProt O75385)
Sequence (whole entry): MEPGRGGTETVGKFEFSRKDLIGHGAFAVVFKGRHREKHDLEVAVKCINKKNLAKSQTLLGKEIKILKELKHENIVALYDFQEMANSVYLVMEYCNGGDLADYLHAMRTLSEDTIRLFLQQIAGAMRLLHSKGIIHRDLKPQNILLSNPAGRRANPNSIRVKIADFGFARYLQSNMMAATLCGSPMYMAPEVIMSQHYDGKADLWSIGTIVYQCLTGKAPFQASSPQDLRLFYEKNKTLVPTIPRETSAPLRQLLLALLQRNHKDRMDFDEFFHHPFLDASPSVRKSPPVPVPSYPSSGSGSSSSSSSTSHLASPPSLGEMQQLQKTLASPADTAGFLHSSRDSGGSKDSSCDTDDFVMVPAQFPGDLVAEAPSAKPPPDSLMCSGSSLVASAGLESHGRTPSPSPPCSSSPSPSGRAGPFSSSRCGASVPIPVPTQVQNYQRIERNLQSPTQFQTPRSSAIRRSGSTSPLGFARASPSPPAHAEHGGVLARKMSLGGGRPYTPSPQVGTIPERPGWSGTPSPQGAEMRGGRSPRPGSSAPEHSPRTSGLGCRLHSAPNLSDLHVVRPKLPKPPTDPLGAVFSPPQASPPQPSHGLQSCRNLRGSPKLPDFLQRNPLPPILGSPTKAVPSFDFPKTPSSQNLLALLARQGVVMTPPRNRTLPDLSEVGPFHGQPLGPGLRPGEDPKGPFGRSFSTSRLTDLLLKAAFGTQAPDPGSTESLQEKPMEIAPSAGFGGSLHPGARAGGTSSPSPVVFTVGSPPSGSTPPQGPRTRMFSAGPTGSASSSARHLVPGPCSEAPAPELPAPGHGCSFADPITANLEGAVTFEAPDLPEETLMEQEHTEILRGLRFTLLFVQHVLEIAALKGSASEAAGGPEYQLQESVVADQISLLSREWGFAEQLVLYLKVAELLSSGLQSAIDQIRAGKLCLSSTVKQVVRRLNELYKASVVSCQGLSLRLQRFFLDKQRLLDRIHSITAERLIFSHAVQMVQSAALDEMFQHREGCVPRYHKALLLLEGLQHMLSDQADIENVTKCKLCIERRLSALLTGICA
Test: Induction of human recombinant N-terminal GST tagged-ULK1 (1 to 649 residues) kinase activity expressed in baculovirus infected insect Sf9 cells at 100 nM using MBP as substrate after 60 mins by ADP-glo assay relative to control
Use % as the unit, but write only the number.

Under Serine/threonine-protein kinase ULK1 (Homo sapiens) (UniProt O75385), report Activity for CN1CCN(CC(OC(=O)c2ccccc2)c2ccccc2)CC1 (stereo not given)
156

Under Serine/threonine-protein kinase ULK1 (Homo sapiens) (UniProt O75385), report Activity for `COc1cccc(CCN[C@@H](C(=O)Nc2ccc(F)cc2F)c2ccccc2)c1`
148

Under Serine/threonine-protein kinase ULK1 (Homo sapiens) (UniProt O75385), report Activity for COc1ccc(N2CCN(CC(OC(=O)c3ccc(-c4ccccc4)cc3)c3ccccc3)CC2)cc1 (stereo not given)
147

Under Serine/threonine-protein kinase ULK1 (Homo sapiens) (UniProt O75385), report Activity for `O=C(Nc1ccc(F)cc1F)[C@H](NCCc1cccc(F)c1)c1ccccc1`
161

Under Serine/threonine-protein kinase ULK1 (Homo sapiens) (UniProt O75385), report Activity for `COc1ccc(CCN[C@@H](C(=O)Nc2ccccc2C)c2ccccc2)cc1OC`
147

Under Serine/threonine-protein kinase ULK1 (Homo sapiens) (UniProt O75385), report Activity for `COc1ccc(CCNC(=O)N[C@@H](C(=O)Nc2ccccc2Cl)c2ccccc2)cc1OC`
152

Under Serine/threonine-protein kinase ULK1 (Homo sapiens) (UniProt O75385), report Activity for `C[C@@H](NC(=O)[C@H](NC(=S)Nc1cc(C(F)(F)F)cc(C(F)(F)F)c1)c1ccccc1)c1ccccc1`
178

Under Serine/threonine-protein kinase ULK1 (Homo sapiens) (UniProt O75385), report Activity for COc1ccc(CC(=O)OC(CN2CCN(C)CC2)c2ccccc2)cc1OC (stereo not given)
139

Under Serine/threonine-protein kinase ULK1 (Homo sapiens) (UniProt O75385), report Activity for `Cc1ccccc1NC(=O)[C@H](NCCc1ccc2[nH]ccc2c1)c1ccccc1`
144

Under Serine/threonine-protein kinase ULK1 (Homo sapiens) (UniProt O75385), report Activity for `C[C@@H](NC(=O)[C@H](NC(=O)Nc1cccc(Cl)c1)c1ccccc1)c1ccccc1`
169
